Every entry's value here was drawn from patent US20240016931A1.

TESTED SYSTEM: T1, Fc-tagged human TSLP antigen (huTSLP-Fc) (human, biotin-labeled in the blocking assays)
T1 construct: whole entry named; also called recombinant human TSLP-Fc
TEST NAME: competition ELISA: blocks TSLP binding to TSLP receptor
// IC50 lookup, one value per entry
QUANTITY: IC50

hu199-04 (antibody, human IgG1, kappa, V domains shown, IgG1-YTE, kappa) VH: EVQLVQSGAEVKKPGASVKVSCKASGYTFTTYWMHWVRQAPGQGLEWMGMIDPSDSETTLIQKFKDRVTMTVDKSTSTAYMELSSLRSEDTAVYYCARTLDGYYDYWGQGTTVTVSS VL: DIQMTQSPSSLSASVGDRVTITCRASENIYSYLAWYQQKPGKAPKLLIYFAKTLAEGVPSRFSGSVSGTDFTLTISSLQPEDFATYYCQHHYGTPWTFGGGTKVEIKR : 0.424 nM
hu199-11 (antibody, human IgG1, kappa, V domains shown, IgG1-YTE, kappa) VH: EVQLVQSGAEVKKPGASVKVSCKASGYTFTTYWMHWVRQAPGQGLEWMGMIDPSDSETTLIQKFKDRVTLTVDKSTSTAYMELSSLRSEDTAVYYCARTLDGYYDYWGQGTTVTVSS VL: DIQMTQSPSSLSASVGDRVTITCRASENIYSYLAWYQQKPGKAPKLLVYFAKTLAEGVPSRFSGSVSGTDFTLTISSLQPEDFATYYCQHHYGTPWTFGGGTKVEIKR : 0.365 nM
Ch199 (antibody, human IgG1, kappa, V domains shown, murine variable regions on human IgG1-YTE / kappa; also called Chi 99; chimeric antibody corresponding to mab199) VH: QVQLQQSGPQLVRPGASVKISCKASGYSFTTYWMHWVKQRPGQGLEWIGMIDPSDSETTLIQKFKDKATLTVDKSSSTAYMQLSSPTSEDSAVYYCARTLDGYYDYWGQGTTLTVSS VL: DIQMTQSPASLSASVGETVTITCRASENIYSYLAWYQQKQGKSPQLLVYFAKTLAEGVPSRFSGSVSGTQFSLKINSLQPEDFGSYYCQHHYGTPWTFGGGTKLEIKR : 0.427 nM
